- Test system: biotinyl-Ile-oxazolone
- protocolNotes: self-aminoacylation, catalytic enhancement (BIO) (fold over background); higher = more active; k-Seq, kA / k0A0; sequences stand for … in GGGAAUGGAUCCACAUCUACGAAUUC…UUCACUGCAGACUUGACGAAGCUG
Variants at the floor of the assay were thinned out.
propertyLabel: self-aminoacylation
Numbers only.

In the examples that follow, each entry is paired with its recorded self-aminoacylation.
primarySequence: AUUACCCUGGUUAUCGAGUUA [Fam2.1 aminoacylation ribozyme variant]
resultValue: 0.945
//
primarySequence: CUAAUUGAAACAAUCGGUCUG [Fam1A.1 aminoacylation ribozyme variant]
resultValue: 0.78
//
primarySequence: AUUACCCUGGUCAUCAACUGA [Fam2.1 aminoacylation ribozyme variant]
resultValue: 0.789
//
primarySequence: AUUACCCUGGUCAUCGAGUAG [Fam2.1 aminoacylation ribozyme variant]
resultValue: 2.15
//
primarySequence: AUCCACCUAGGUUAUCGGGUG [Fam2.2 aminoacylation ribozyme variant]
resultValue: 3.44
//
primarySequence: CUACUUCAAACUAUCGGUUUG [Fam1A.1 aminoacylation ribozyme variant]
resultValue: 0.944
//
primarySequence: AAGUCCGCUAAUAGUCGCAAG [Fam3.1 aminoacylation ribozyme variant]
resultValue: 2.43
//
primarySequence: AUUAGCCUGGUCAUCGUGUGA [Fam2.1 aminoacylation ribozyme variant]
resultValue: 1.96
//
primarySequence: AAGUUUGCUAAUAGCCGCAAA [Fam3.1 aminoacylation ribozyme variant]
resultValue: 1.92
//
primarySequence: AUUACCCUUGUCAUCGAGUGG [Fam2.1 aminoacylation ribozyme variant]
resultValue: 1.25

Batch of 4 sequences: report self-aminoacylation for each.
1. AUUGCCGUGGUCAUCGAGUGA [Fam2.1 aminoacylation ribozyme variant]
2. CCACUUCGAACAAUCGGUCUG [Fam1A.1 aminoacylation ribozyme variant]
3. AUUCACCGGGGUCAUCGGGUG [Fam2.2 aminoacylation ribozyme variant]
4. CCACACUUCAGGCAAUCGGUC [Fam1B.1 aminoacylation ribozyme variant]

Data returned:
[2.89, 1.15, 6.47, 1.14]

###

- System: biotinyl-Met-oxazolone
- protocolNotes: self-aminoacylation, catalytic enhancement (BMO) (fold over background); higher = more active; k-Seq, kA / k0A0; sequences stand for … in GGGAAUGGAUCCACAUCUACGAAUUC…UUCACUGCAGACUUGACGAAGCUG
Fewer inactive variants are shown than the library holds.
self-aminoacylation below 6 gives Condition not met; self-aminoacylation at or above it gives Condition met.

Would you please look over these solved cases?
primarySequence: CUUCAACUAGGUCAUCGGGUG [Fam2.2 aminoacylation ribozyme variant]
class: Condition not met
//
primarySequence: CCACACUUCAACCCAUCGGUC [Fam1B.1 aminoacylation ribozyme variant]
class: Condition not met
//
primarySequence: AUUCACCAAGUUCAUCGGGUG [Fam2.2 aminoacylation ribozyme variant]
class: Condition not met
//
primarySequence: AUUACUCUGGUCAUCGAGUGU [Fam2.1 aminoacylation ribozyme variant]
class: Condition not met

Data request: Is reported self-aminoacylation greater than or equal to 6 here: AUUACCCCGGUCAUCGGGUGA [Fam2.1 aminoacylation ribozyme variant]
Data returned: Condition met

###

Would you mind telling me the reported self-aminoacylation of each entry?
- Tested on: biotinyl-Met-oxazolone
- protocolNotes: self-aminoacylation, catalytic enhancement (BMO) (fold over background); higher = more active; k-Seq, kA / k0A0; sequences stand for … in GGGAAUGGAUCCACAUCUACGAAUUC…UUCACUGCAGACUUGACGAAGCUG
Fewer inactive variants are shown than the library holds.
Answers are plain numbers.

In the examples that follow, each entry is paired with its recorded self-aminoacylation.
primarySequence: AUUUCCCUGGUCAUCGAGUGG [Fam2.1 aminoacylation ribozyme variant]
self-aminoacylation: 7.95
--
primarySequence: AUUCACCGAGAUCAUCGGGUG [Fam2.2 aminoacylation ribozyme variant]
self-aminoacylation: 6.77
--
primarySequence: AUUCAGCUCGGUCAUCGGGUG [Fam2.2 aminoacylation ribozyme variant]
self-aminoacylation: 9.53

Batch of 5 sequences: report self-aminoacylation for each.
1. AUUACCUUGGUCAACGAGUGA [Fam2.1 aminoacylation ribozyme variant]
2. CUCCUGCAAACAAUCGGUCUG [Fam1A.1 aminoacylation ribozyme variant]
3. AUUCACCUCGUUCAUCGGGUG [Fam2.2 aminoacylation ribozyme variant]
4. AUUAACCUAGGUCAUCUGGUG [Fam2.2 aminoacylation ribozyme variant]
5. AUUCAACUAGGUCAUCGGGAG [Fam2.2 aminoacylation ribozyme variant]

Data returned:
6.26
1.14
4.1
2.59
1.23

###

- System: biotinyl-Leu-oxazolone
- protocolNotes: self-aminoacylation, catalytic enhancement (BLO) (fold over background); higher = more active; k-Seq, kA / k0A0; sequences stand for … in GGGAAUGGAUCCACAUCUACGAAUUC…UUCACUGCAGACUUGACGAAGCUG
Fewer inactive variants are shown than the library holds.
Would you mind telling me the reported self-aminoacylation of each entry?
One number for each entry.

In the examples that follow, each entry is paired with its recorded self-aminoacylation.
primarySequence: AUUACUCUGGUCAACGAGUGA [Fam2.1 aminoacylation ribozyme variant]
target: biotinyl-Leu-oxazolone
propertyLabel: self-aminoacylation
resultValue: 5.72
--
primarySequence: ACACGCUUCAAGCAAUCGGUC [Fam1B.1 aminoacylation ribozyme variant]
target: biotinyl-Leu-oxazolone
propertyLabel: self-aminoacylation
resultValue: 2.68

Batch of 2 sequences: report self-aminoacylation for each.
1. AUACGCCUAGGUCAUCGGGUG [Fam2.2 aminoacylation ribozyme variant]
2. CUACUUCAAAAAAUCCGUCUG [Fam1A.1 aminoacylation ribozyme variant]

Data returned:
7.77
0.682

Batch of 3 sequences: report self-aminoacylation for each.
1. AAGCUCGCUAAUAGUCGCAAG [Fam3.1 aminoacylation ribozyme variant]
2. CCACACUGCAAGGAAUCGGUC [Fam1B.1 aminoacylation ribozyme variant]
3. AUCACCCUGGUCAUCGAAUGA [Fam2.1 aminoacylation ribozyme variant]

Data returned:
2.49
1.3
1.29

###

Would you mind telling me the reported self-aminoacylation of each entry?
- Tested on: biotinyl-Met-oxazolone
- protocolNotes: self-aminoacylation, catalytic enhancement (BMO) (fold over background); higher = more active; k-Seq, kA / k0A0; sequences stand for … in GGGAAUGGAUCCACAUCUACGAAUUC…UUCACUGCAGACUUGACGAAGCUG
Variants at the floor of the assay were thinned out.
Numbers only.

Batch of 2 sequences: report self-aminoacylation for each.
1. CUACAUGAAACAAUCGGUCUG [Fam1A.1 aminoacylation ribozyme variant]
2. AUUCUCCUAGAUCAUCGGGUG [Fam2.2 aminoacylation ribozyme variant]

Data returned:
[0.868, 4.32]

Batch of 8 sequences: report self-aminoacylation for each.
1. AUUCAUCAAGGUCAUCGGGUG [Fam2.2 aminoacylation ribozyme variant]
2. AAGUUUGCCAAUAGGCGCAAG [Fam3.1 aminoacylation ribozyme variant]
3. AAGUUUGCUAUUAGGCGCAAG [Fam3.1 aminoacylation ribozyme variant]
4. AUGCACCUAGGUCUUCGGGUG [Fam2.2 aminoacylation ribozyme variant]
5. CUAGUUCAAACAAACGGUCUG [Fam1A.1 aminoacylation ribozyme variant]
6. AUUGCCCUGGUCAUCGAGCGA [Fam2.1 aminoacylation ribozyme variant]
7. CUUACCCUAGUCAUCGAGUGA [Fam2.1 aminoacylation ribozyme variant]
8. AAGUUUGCAAAUAGUCGCAAU [Fam3.1 aminoacylation ribozyme variant]

Data returned:
[9.84, 0.885, 0.591, 4.93, 0.814, 2.55, 4.55, 1.64]

###

Would you mind telling me the reported self-aminoacylation of each entry?
- Test system: biotinyl-Phe-oxazolone
- protocolNotes: self-aminoacylation, catalytic enhancement (BFO) (fold over background); higher = more active; k-Seq, kA / k0A0; sequences stand for … in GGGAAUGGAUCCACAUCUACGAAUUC…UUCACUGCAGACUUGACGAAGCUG
This sample holds only a part of the variants without activity.

primarySequence: GCACACUUCAAGCAUUCGGUC [Fam1B.1 aminoacylation ribozyme variant]
target: biotinyl-Phe-oxazolone
self-aminoacylation: 4.96
//
primarySequence: CCACUCCAAACAAUCGGUCUG [Fam1A.1 aminoacylation ribozyme variant]
target: biotinyl-Phe-oxazolone
self-aminoacylation: 4.18
//
primarySequence: AUUCACCUAGGAUAUCGGGUG [Fam2.2 aminoacylation ribozyme variant]
target: biotinyl-Phe-oxazolone
self-aminoacylation: 44.1
//
primarySequence: CUAAUUCAAACAAUCGGUCAG [Fam1A.1 aminoacylation ribozyme variant]
target: biotinyl-Phe-oxazolone
self-aminoacylation: 1.46
//
primarySequence: CUACCUCUAACAAUCGGUCUG [Fam1A.1 aminoacylation ribozyme variant]
target: biotinyl-Phe-oxazolone
self-aminoacylation: 0.97

Batch of 6 sequences: report self-aminoacylation for each.
1. AGGAUUGCUAAUAGUCGCAAG [Fam3.1 aminoacylation ribozyme variant]
2. AUUACCCUAGUCUUCGAGUGA [Fam2.1 aminoacylation ribozyme variant]
3. AUUACCCUGGUCAUUGAGUGG [Fam2.1 aminoacylation ribozyme variant]
4. AAGUCUGCUAAUAGUCCCAAG [Fam3.1 aminoacylation ribozyme variant]
5. AUUUCCCUGGUCACCGAGUGA [Fam2.1 aminoacylation ribozyme variant]
6. CUAAUUCAAACUAUCGGUCUG [Fam1A.1 aminoacylation ribozyme variant]

Data returned:
[2.92, 24.6, 2.08, 7.42, 66.2, 1.1]

Batch of 4 sequences: report self-aminoacylation for each.
1. CCACAGUUCAAGCAAUAGGUC [Fam1B.1 aminoacylation ribozyme variant]
2. AAGUUUACUAGUAGUCGCAAG [Fam3.1 aminoacylation ribozyme variant]
3. CCACACUUCAUUCAAUCGGUC [Fam1B.1 aminoacylation ribozyme variant]
4. AUCACCCUGGUCACCGAGUGA [Fam2.1 aminoacylation ribozyme variant]

Data returned:
1: 1.14; 2: 1.48; 3: 0.605; 4: 96.6
